Test: Solubility evaluation in aqueous buffer
Assay type: physicochemical
Conditions: thermodynamic from solid; aqueous buffer pH 4, 25° C., about 24 hours equilibration; read-out: Solubility (mg/mL) at 25° C. pH 4
READOUT_KIND: solubility (mg/mL)
Note: unit mg/mL is implicit; provide only the numeric part.

Exam item: Look up solubility of "COc1cc(C(=O)OCOC(=O)n2c(-c3cn4ncnc4c(C)c3C)c(C(C)C)c3cc(C4CCN(CC(N)=O)CC4)ccc32)ccc1OP(=O)(O)O" and report it.
Marked response: 0.02

###

Experiment: Solubility evaluation in aqueous buffer
Assay type: physicochemical
Details: thermodynamic from solid; aqueous buffer pH 6.5, 25° C., about 24 hours equilibration; read-out: Solubility (mg/mL) at 25° C. pH 6.5
READOUT_KIND: solubility

Exam item: Return solubility (reported value) for this compound: COc1cc(C(=O)OCOC(=O)n2c(-c3cn4ncnc4c(C)c3C)c(C(C)C)c3cc(C4CCN(CC(N)=O)CC4)ccc32)ccc1OP(=O)(O)O [Example 22]
Marked response: 0.02 mg/mL
